Values were extracted from PubChem BioAssay (NCI).

Test system: NCI-H522 lung
Test: NCI tumour cell line growth inhibition, 48 h
Please go through the items and note down their TGI.

Specify reported TGI for the compound shown: O=C1NC(N2CCCCC2)=N/C1=C\c1ccco1
> 100 µM

Specify reported TGI for the compound shown: CC1N=C(c2ccccc2)OC1=O (centres undefined)
> 100 µM

Specify reported TGI for the compound shown: CCOC(=O)/C(=C\c1c(C)[nH]c2ccccc12)P(=O)(OCC)OCC
> 100 µM

Specify reported TGI for the compound shown: O=C(CC1Sc2ccccc2NC1=O)NNc1ccc(F)cc1 (centres undefined)
> 100 µM

###

Please go through the items and note down their TGI.
Tested on: CCRF-CEM leukemia
Assay: NCI tumour cell line growth inhibition, 48 h

Specify reported TGI for the molecule shown: Cc1ccc(S(=O)(=O)NNC(=O)Nc2ccc([N+](=O)[O-])cc2)cc1
> 100 µM

Specify reported TGI for the molecule shown: N#CC(C#N)=C1CCC2C(=C(C#N)C#N)CCC12 (centres undefined)
> 100 µM

Specify reported TGI for the molecule shown: C/C(=N/N)c1sc(-c2nc(C)c(/C(C)=N\N)s2)nc1C
> 76.7 µM

Specify reported TGI for the molecule shown: O=C(O)CCSC(=O)Nc1ccccc1
> 100 µM

Specify reported TGI for the molecule shown: COC(=O)[C@H](CCCCNC(=O)OCc1ccccc1)NC(=O)[C@@H](NC(=O)Nc1cc(C(F)(F)F)cc(C(F)(F)F)c1)C(C)C
> 10 µM

Specify reported TGI for the molecule shown: Cc1ccc(CN2CCN(Cc3ccc(C)o3)C(C)C2)o1 (centres undefined)
> 100 µM

Specify reported TGI for the molecule shown: OCC1OC(n2cnc3c(NCc4ccccc4O)ncnc32)C(O)C1O (centres undefined)
33.6 µM

Specify reported TGI for the molecule shown: Cc1cnc2[nH]c(-c3ccc(Cl)cc3)cc(=O)c2c1
> 100 µM

Specify reported TGI for the molecule shown: CC[C@]1(Cc2ccc(OC)c(OC)c2)C=[N+]([O-])O[C@H](OCc2ccccc2)[C@@H]1OC(C)=O
55.6 µM

Specify reported TGI for the molecule shown: CC1=NNC(=O)C1C1C=C(c2c[nH]c3ccccc23)OC1=O (centres undefined)
> 100 µM

Specify reported TGI for the molecule shown: CC(=O)OCC1OC(n2c(O)c(N=NC(N)=S)c3ccc([N+](=O)[O-])cc32)C(OC(C)=O)C1OC(C)=O (centres undefined)
64.8 µM

Specify reported TGI for the molecule shown: C=C1C(C(=O)O)C1C(=O)O (centres undefined)
> 100 µM

Specify reported TGI for the molecule shown: C[Si](C)(C)/C=C/CN1C(=O)CCC1=O
> 100 µM

Specify reported TGI for the molecule shown: O=C1C2C3C=C4c5ccccc5N(c5ccccc5)C4([C@@H]2C(=O)N1c1ccc(F)cc1)[C@H]1C(=O)N(c2ccc(F)cc2)C(=O)[C@@H]31 (some centres undefined)
> 100 µM

###

Test system: OVCAR-8 ovarian
Test: NCI tumour cell line growth inhibition, 48 h
MEASURED_PROPERTY: TGI

Specify reported TGI for the compound shown: O=C1NC(N2CCCCC2)=N/C1=C\c1ccco1
> 100 µM

Specify reported TGI for the compound shown: CC1(C)CCC[C@@]2(C)C1CC[C@@]1(CO1)[C@@H]2/C=C\C(C=O)CC=O (some centres undefined)
> 100 µM

Specify reported TGI for the compound shown: CC1(C)CN(CCNc2nccc(-c3c(-c4cccc(O)c4)nc4sccn34)n2)S(=O)(=O)N1
> 33.2 µM

Specify reported TGI for the compound shown: N[C@H]1CCN(c2c(F)cc3c(=O)c(C(=O)O)cn4c3c2Oc2c-4ccc3c2ccc2ccccc23)C1
> 100 µM

Specify reported TGI for the compound shown: COc1cc(OC)nc(-n2c(N)c(C(=O)O)c3ccc([N+](=O)[O-])cc3c2=O)n1
> 100 µM

Specify reported TGI for the compound shown: CCOC(=O)c1csc(-c2cn(C)c3c2C(=O)C(OC)=CC3=O)n1
> 100 µM

Specify reported TGI for the compound shown: O=C(O)c1[nH]c2c([N+](=O)[O-])cc([N+](=O)[O-])cc2c1C(=O)O
> 100 µM

Specify reported TGI for the compound shown: C[C@]12CC[C@H](O)CC1=CC[C@@H]1[C@@H]2CC[C@]2(C)NC(=O)/C(=C\c3ccccc3)C[C@@H]12
47.6 µM

Specify reported TGI for the compound shown: Cc1cn2c(/C=C3\C(=O)N(C)c4ccc(Cl)cc43)c(C)nc2s1
> 100 µM

Specify reported TGI for the compound shown: CC(=N\O)/C(C)=N/O.CC(=N\O)/C(C)=N/O.[Fe].[NH2-].c1c[nH]cn1
> 100 µM

Specify reported TGI for the compound shown: CCN(CC)CCCC(C)Nc1ccnc(/C=C/c2ccc(Cl)cc2)c1 (centres undefined)
7.57 µM

Specify reported TGI for the compound shown: CC[C@]1(Cc2ccc(OC)c(OC)c2)C=[N+]([O-])O[C@H](OCc2ccccc2)[C@@H]1OC(C)=O
> 100 µM

Specify reported TGI for the compound shown: CCOC(=O)CCc1ccc(NC(=O)/C=C/c2ccc([N+](=O)[O-])o2)cc1
2.28 µM

Specify reported TGI for the compound shown: CC(C)(C)OC(=O)C1/C(=C/CBr)CN1C(=O)OC(C)(C)C (centres undefined)
44.2 µM

Specify reported TGI for the compound shown: CSc1cc(C(C)(C)C)ccc1C(O)c1ccc(C(C)(C)C)cc1SC
28.8 µM

Specify reported TGI for the compound shown: Cc1nn(C(=O)c2ccc(Cl)cc2)c2c1C(c1ccc(Cl)cc1)SC(N)=N2 (centres undefined)
> 10 µM

Specify reported TGI for the compound shown: Oc1ccc(/C=N/NC(=S)Nc2cccnc2)nc1
12.6 µM

Specify reported TGI for the compound shown: CCOC(=O)c1cc(C(=O)c2cc(OC)c(OC)c(OC)c2)n2ccc(-c3cc[n+](CC(=O)c4cc(OC)c(OC)c(OC)c4)cc3)cc12
5.47 µM

Specify reported TGI for the compound shown: O=C(NC(CCCCN1C(=O)c2ccccc2C1=O)P(=O)(Oc1ccccc1)Oc1ccccc1)OCc1ccccc1 (centres undefined)
> 100 µM

Specify reported TGI for the compound shown: Cc1cn(C2CC(O)C(COC(N)=O)O2)c(=O)[nH]c1=O (centres undefined)
> 100 µM

Specify reported TGI for the compound shown: O=Cc1ccc(-c2ccc(S(=O)(=O)O)cc2)o1
> 100 µM

Specify reported TGI for the compound shown: CCOC(=O)c1ccc(N(CCOS(=O)(=O)c2ccc(C)cc2)CCOS(=O)(=O)c2ccc(C)cc2)cc1
> 100 µM

Specify reported TGI for the compound shown: COc1cc(-c2ccccc2)cn2c1nc1ccccc12
64.4 µM

Specify reported TGI for the compound shown: OCC1OC(n2cnc3c(NCc4ccccc4O)ncnc32)C(O)C1O (centres undefined)
8.09 µM

Specify reported TGI for the compound shown: COC(=O)C(=O)C(C(C)=O)C(=O)C(=O)Nc1ccc(C)cc1C (centres undefined)
> 100 µM

Specify reported TGI for the compound shown: O=C(Nc1ccc(Cl)cc1)N1CCN(c2ccc3nncn3n2)CC1
> 100 µM

Specify reported TGI for the compound shown: COC(=O)/C(=N\N)C(C(=O)C(=O)Nc1nc(=S)[nH][nH]1)c1nc2ccc([N+](=O)[O-])cc2[nH]c1=O (centres undefined)
> 100 µM

Specify reported TGI for the compound shown: Cn1cc(-c2nc(-c3cn(C)c4ncccc34)cs2)c2ccccc21
> 100 µM

Specify reported TGI for the compound shown: O=c1[nH]c2ccccc2n1C1CCN(CCOc2ccccc2)CC1
> 100 µM

Specify reported TGI for the compound shown: CCCCCC(/C=C/c1ncccc1OCCCCCC(=O)O)=N\NC1=NCCN1
> 100 µM

Specify reported TGI for the compound shown: COc1cc2cnc3c4cc(OC)c(OC(C)C)cc4ccc3c2cc1OC
> 100 µM

Specify reported TGI for the compound shown: CC1OC(CC2C=CCc3c(O)c4c(c(O)c32)C(=O)c2ccccc2C4=O)CC(NC(=O)C(F)(F)F)C1O (centres undefined)
15 µM

Specify reported TGI for the compound shown: COC(=O)C1=COC2OC3CC1C2C(C)O3 (centres undefined)
> 100 µM

Specify reported TGI for the compound shown: CC(C)CC1NC(=O)CCC(NC(=O)C(Cc2ccc(O)cc2)NC(=O)OCc2ccccc2)C(=O)NC(Cc2ccccc2)C(=O)NC(Cc2ccccc2)NC1=O (centres undefined)
> 100 µM

###

Please go through the items and note down their TGI.
Tested on: DU-145 prostate
Experiment: NCI tumour cell line growth inhibition, 48 h

Specify reported TGI for the compound shown: C/C=C(\C)C(=O)O[C@@H]1C=CC(=O)O[C@H]1CNC(=O)[C@H](C)O
69.1 µM

Specify reported TGI for the compound shown: CCOC(=O)c1ccc(NC(=O)c2cccc(NC3=C(Cl)C(=O)N(Cc4ccccc4)C3=O)c2)cc1
> 100 µM

Specify reported TGI for the compound shown: C[C@]12CC[C@H](O)CC1=CC[C@@H]1[C@@H]2CC[C@]2(C)NC(=O)/C(=C\c3ccccc3)C[C@@H]12
33.5 µM

Specify reported TGI for the compound shown: COc1ccc(NC(/C(C(=O)C(=O)/C=C(\O)c2ccccc2)=C(\O)c2ccccc2)c2ccc(OC)cc2)cc1 (stereo not drawn)
> 100 µM

Specify reported TGI for the compound shown: CC(=O)N1N=C(c2ccc3ccccc3c2O)CC1c1ccc(N(C)C)cc1 (stereo not drawn)
> 100 µM

Specify reported TGI for the compound shown: O=C(NCCN(CCNC(=O)c1cccc(=O)n1O)CCNC(=O)c1cccc(=O)n1O)c1cccc(=O)n1O
> 100 µM

Specify reported TGI for the compound shown: CN1CCN(Cc2ccccc2)CC1CC#N (stereo not drawn)
> 100 µM

Specify reported TGI for the compound shown: COc1ccc(C2=NN(C(=O)c3ccc(Cl)cc3)C(O)(c3cc(F)c(Cl)cc3Cl)C2)cc1 (stereo not drawn)
> 100 µM

Specify reported TGI for the compound shown: CC(=O)c1ccc(Oc2c3ccccc3nc3occc23)cc1
> 100 µM

Specify reported TGI for the compound shown: O=C(CC1Sc2ccccc2NC1=O)NNc1ccc(F)cc1 (stereo not drawn)
> 100 µM

Specify reported TGI for the compound shown: c1ccc(COC[C@H]2C3OCC([C@H](OCc4ccccc4)[C@H]3OCc3ccccc3)N2Cc2ccccc2)cc1 (stereo partly drawn)
> 100 µM

Specify reported TGI for the compound shown: COc1cc(-c2ccccc2)cn2c1nc1ccccc12
> 100 µM

Specify reported TGI for the compound shown: Nc1ncnc2c1ncn2CCCCC(=O)O
> 100 µM

Specify reported TGI for the compound shown: C1=Cc2cccc3occ(c23)C=C1
> 100 µM

Specify reported TGI for the compound shown: CC[Si](CC)(CC)OC1[C@@H](O[Si](CC)(CC)CC)[C@@H](CNC(=O)NC)O[C@H]1n1cnc2c(NC(=O)Nc3ccccc3)ncnc21 (stereo partly drawn)
> 100 µM

Specify reported TGI for the compound shown: Cc1ccc2c(c1)CC1(C2)Cc2ccc(C)cc2C1=O (stereo not drawn)
> 100 µM

Specify reported TGI for the compound shown: C=C1C(O)C2CC(C)(C)C(=O)C2=C(CC(C)C)C12CC2 (stereo not drawn)
> 100 µM

Specify reported TGI for the compound shown: C[C@H]1S[C@H](c2c(F)cccc2F)n2c1nc1ccccc12
> 100 µM

Specify reported TGI for the compound shown: CCCCC[C@H]1C/C=C2/C(=O)C(Cl)=C[C@@H]2C/C=C\CCCC(=O)O1
2.51 µM

Specify reported TGI for the compound shown: COc1cc([C@@H]2c3cc4c(cc3[C@@H](NC(=O)NO)[C@H]3COC(=O)[C@H]23)OCO4)cc(OC)c1O
> 100 µM

Specify reported TGI for the compound shown: CC(=O)c1cccc(Nc2nc3ccccc3c3[nH]c4ccccc4c23)c1
> 100 µM

Specify reported TGI for the compound shown: O=C(Nc1cc2cc([N+](=O)[O-])ccc2oc1=O)c1cccs1
> 100 µM

Specify reported TGI for the compound shown: CC(=N\O)/C(C)=N/O.CC(=N\O)/C(C)=N/O.[Fe].[NH2-].c1c[nH]cn1
> 100 µM

Specify reported TGI for the compound shown: COC(=O)[C@H](CCCCNC(=O)OCc1ccccc1)NC(=O)[C@@H](NC(=O)Nc1cc(C(F)(F)F)cc(C(F)(F)F)c1)C(C)C
> 10 µM

Specify reported TGI for the compound shown: CCC(=C(c1ccc(OCCN2CCCC2)cc1)c1ccc(OCCN2CCCC2)cc1)c1ccc(Cl)cc1
1.14 µM

Specify reported TGI for the compound shown: Cc1ccc(NC2=CC(=O)C(=O)c3ccccc32)cc1
2.91 µM

Specify reported TGI for the compound shown: CN1N=C(c2ccccc2)c2cc(Cl)ccc2N=C1N/N=C/c1ccc(N(C)C)cc1
> 100 µM

Specify reported TGI for the compound shown: CCOC(=O)/C(=C\c1c(C)[nH]c2ccccc12)P(=O)(OCC)OCC
> 100 µM
